Target: MAGL (Homo sapiens)
Sequence (Q99685 whole entry): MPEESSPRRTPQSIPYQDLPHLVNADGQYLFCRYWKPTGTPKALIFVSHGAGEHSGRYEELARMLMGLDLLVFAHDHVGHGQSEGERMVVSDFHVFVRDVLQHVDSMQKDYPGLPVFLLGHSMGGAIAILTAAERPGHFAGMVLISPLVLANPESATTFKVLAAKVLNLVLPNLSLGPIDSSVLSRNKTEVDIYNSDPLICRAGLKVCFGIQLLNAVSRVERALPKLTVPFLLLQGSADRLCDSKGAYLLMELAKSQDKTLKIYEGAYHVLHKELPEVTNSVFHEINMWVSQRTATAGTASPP
Assay: In vitro competitive activity-based protein profiling, MAGL, human
Details: read-out: MAGL % inh. 1 μM (human)
recordedEndpoint: inhibition at 1 µM

Check out these entries, answers already filled in.
O=C(O)c1nn(C(=O)N2C[C@H]3C[C@H](Oc4cccc(-c5ccccc5)c4)C[C@H]3C2)cc1C(F)(F)F [Example 369]    > 75%
O=C(O)c1ccn(C(=O)N2CCC(Oc3cc(N4CCCC4)cc(C(F)(F)F)c3)CC2)n1 [Example 308]    > 75%
O=C(O)c1nn(C(=O)N2CCC3(CCN(Cc4cc(Cl)cc(C(F)(F)F)c4)C3)CC2)cc1Cl [Example 388]    > 75%
Cc1cn(C(=O)N2CCN(Cc3cccc(Oc4ccc(Cl)cc4)c3)CC2)nc1C(=O)O [Example 129]    > 75%

Form field: inhibition at 1 µM recorded for C[C@@H]1CCCCN1c1cc(C(F)(F)F)ccc1CN1CCN(C(=O)n2ccc(C(=O)O)n2)CC1 [Example 103] with MAGL (Homo sapiens) (enter value)
> 75%

Form field: inhibition at 1 µM recorded for NC(=O)c1ccn(C(=O)N2CCC3(CCN(Cc4cc(Cl)cc(C(F)(F)F)c4)C3)CC2)n1 [Example 196] with MAGL (Homo sapiens) (enter value)
> 75%

Form field: inhibition at 1 µM recorded for O=C(O)c1ccn(C(=O)N2CCN(Cc3ccc(C(F)(F)F)cc3N3CCC(F)CC3)CC2)n1 [Example 102] with MAGL (Homo sapiens) (enter value)
> 75%

Form field: inhibition at 1 µM recorded for O=C(O)c1ccn(C(=O)N2CCN(Cc3ccc(Cl)cc3N3C4CCC3COC4)CC2)n1 [Example 105] with MAGL (Homo sapiens) (enter value)
> 75%

Form field: inhibition at 1 µM recorded for O=C(O)c1ccn(C(=O)N2CCN(Cc3cccc(Oc4cccc(C(F)(F)F)n4)c3)CC2)n1 [Example 353] with MAGL (Homo sapiens) (enter value)
> 75%

Form field: inhibition at 1 µM recorded for O=C(O)c1ccn(C(=O)N2CCN(Cc3ccc(Cl)cc3)CC2)n1 [Example 1] with MAGL (Homo sapiens) (enter value)
25 to 50%

Form field: inhibition at 1 µM recorded for O=C(O)c1ccn(C(=O)N2CCC3(CCN(Cc4cccc(Oc5cncnc5)c4)C3)CC2)n1 [Example 31] with MAGL (Homo sapiens) (enter value)
0 to 25%

Form field: inhibition at 1 µM recorded for O=C(O)c1nn(C(=O)N2CCC3(CCN(Cc4ccc(N5CCCC5)cc4C(F)(F)F)C3)CC2)cc1C(F)(F)F [Example 150] with MAGL (Homo sapiens) (enter value)
25 to 50%

Form field: inhibition at 1 µM recorded for C[C@@H]1CCCN1c1cc(C(F)(F)F)ccc1CN1CCN(C(=O)n2ccc(C(=O)O)n2)CC1 [Example 95] with MAGL (Homo sapiens) (enter value)
> 75%

Form field: inhibition at 1 µM recorded for O=C(O)c1ccn(C(=O)N2CCN(Cc3cccc(Oc4ccc(Cl)cc4)c3)CC2)n1 [Example 98] with MAGL (Homo sapiens) (enter value)
> 75%

Form field: inhibition at 1 µM recorded for O=C(O)c1ccn(C(=O)N2CCC3(CCN(Cc4cc(Cl)ccc4C(F)(F)F)C3)CC2)n1 [Example 43] with MAGL (Homo sapiens) (enter value)
> 75%

Form field: inhibition at 1 µM recorded for CC1(NCc2ccc(C(F)(F)F)cc2N2CCCC2)CCN(C(=O)n2ccc(C(=O)O)n2)CC1 [Example 361] with MAGL (Homo sapiens) (enter value)
> 75%

###

Molecular target: FAAH (Mus musculus, UniProt O08914)
Sequence (O08914 whole entry): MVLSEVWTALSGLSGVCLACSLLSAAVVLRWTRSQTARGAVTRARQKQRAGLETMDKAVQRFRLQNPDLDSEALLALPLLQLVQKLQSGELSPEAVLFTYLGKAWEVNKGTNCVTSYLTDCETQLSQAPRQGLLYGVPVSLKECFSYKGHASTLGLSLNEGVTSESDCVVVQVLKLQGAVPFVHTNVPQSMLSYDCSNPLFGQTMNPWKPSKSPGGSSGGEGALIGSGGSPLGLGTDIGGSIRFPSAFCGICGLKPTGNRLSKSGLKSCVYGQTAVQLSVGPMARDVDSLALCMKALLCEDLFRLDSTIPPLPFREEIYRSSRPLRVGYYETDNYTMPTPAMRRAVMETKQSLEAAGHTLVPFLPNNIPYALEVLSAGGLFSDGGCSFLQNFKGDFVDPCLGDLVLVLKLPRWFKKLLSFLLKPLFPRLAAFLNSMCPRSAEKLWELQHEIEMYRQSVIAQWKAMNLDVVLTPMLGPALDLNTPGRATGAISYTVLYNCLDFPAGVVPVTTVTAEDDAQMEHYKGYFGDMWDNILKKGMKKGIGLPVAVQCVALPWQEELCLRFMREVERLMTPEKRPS
Test: In vitro competitive activity-based protein profiling, FAAH, mouse
Details: read-out: FAAH % inh. 1 μM (mouse)
compounds and their reported inhibition at 1 µM

Could you tell me which inhibition at 1 µM is on file for "O=C(O)c1ccn(C(=O)N2CCC3(CCCN3C(=O)c3cc4ccc(C(F)(F)F)cc4s3)CC2)n1" ?
50 to 75%

Could you tell me which inhibition at 1 µM is on file for "CN(Cc1ccccc1Cl)[C@H]1C[C@@H]2CN(C(=O)n3cc(Cl)c(C(N)=O)n3)C[C@@H]2C1" ?
> 75%

Could you tell me which inhibition at 1 µM is on file for "O=C(O)c1ccn(C(=O)N2CCN(Cc3ccc(C(F)(F)F)cc3N3CC[C@H](F)C3)CC2)n1" ?
0 to 25%

Could you tell me which inhibition at 1 µM is on file for "O=C(O)c1ccn(C(=O)N2CCN(Cc3ccc(C(F)(F)F)cc3N3CCC(F)(F)CC3)CC2)n1" ?
0 to 25%

Could you tell me which inhibition at 1 µM is on file for O=C(O)c1ccn(C(=O)N2CCN(Cc3cccc(Cl)c3N3CC4COCC4C3)CC2)n1 (stereo not shown) ?
0 to 25%

Could you tell me which inhibition at 1 µM is on file for "O=C(O)c1ccn(C(=O)N2CCN(Cc3ccc(C(F)(F)F)cc3N3CCC(F)CC3)CC2)n1" ?
0 to 25%

Could you tell me which inhibition at 1 µM is on file for O=C(O)c1nn(C(=O)N2CC3CN(Cc4ccc(N5CCCC5)cc4C(F)(F)F)CC3C2)cc1Cl (stereo not shown) ?
50 to 75%

###

Biological target: UniProtKB O35678
Assay: In vitro competitive activity-based protein profiling, MAGL, mouse
Conditions: read-out: MAGL % inh. 1 μM (mouse)
recordedEndpoint: inhibition at 1 µM

NC(=O)c1ccn(C(=O)N2CCC3(CCN(Cc4ccc(N5CCCC5)cc4C(F)(F)F)C3)CC2)n1    0 to 25%

Form field: inhibition at 1 µM recorded for O=C(O)c1nn(C(=O)N2CC3CN(Cc4ccc(N5CCCC5)cc4C(F)(F)F)CC3C2)cc1Cl (stereo not shown) with UniProtKB O35678 (enter value)
> 75%

Form field: inhibition at 1 µM recorded for "O=C(O)c1ccn(C(=O)N2CCN(Cc3ccc(Cl)cc3N3C4CCC3COC4)CC2)n1" with UniProtKB O35678 (enter value)
> 75%

Form field: inhibition at 1 µM recorded for "O=C(O)c1nn(C(=O)N2CCN(Cc3cc(F)cc(Oc4ccc(Cl)cc4)c3)CC2)cc1C(F)(F)F" with UniProtKB O35678 (enter value)
> 75%

Form field: inhibition at 1 µM recorded for "O=C(O)c1ccn(C(=O)N2CCC3(CCN(Cc4ccc(Oc5ccc(Cl)cc5)cc4)C3)CC2)n1" with UniProtKB O35678 (enter value)
50 to 75%

Form field: inhibition at 1 µM recorded for "C[C@H]1CN(Cc2cccc(Oc3cc(C(F)(F)F)ccn3)c2)CCN1C(=O)n1ccc(C(=O)O)n1" with UniProtKB O35678 (enter value)
> 75%

Form field: inhibition at 1 µM recorded for "O=C(O)c1nn(C(=O)N2CCN(Cc3cc(F)cc(Oc4ccc(Cl)cc4)c3)CC2)cc1Cl" with UniProtKB O35678 (enter value)
> 75%

###

Target: MAGL (Mus musculus)
Sequence (O35678 whole entry): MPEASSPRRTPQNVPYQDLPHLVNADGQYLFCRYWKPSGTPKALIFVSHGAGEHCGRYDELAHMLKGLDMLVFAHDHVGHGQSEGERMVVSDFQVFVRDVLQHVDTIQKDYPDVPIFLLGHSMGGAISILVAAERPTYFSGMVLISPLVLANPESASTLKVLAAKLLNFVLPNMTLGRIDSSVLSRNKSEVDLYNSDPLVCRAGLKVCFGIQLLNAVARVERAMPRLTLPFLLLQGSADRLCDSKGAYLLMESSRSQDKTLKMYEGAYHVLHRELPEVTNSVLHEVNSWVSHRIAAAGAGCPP
Test: Mouse brain proteomes from inhibitor treated mice (oral gavage, sacrificed 4 h after administration)
Format: in vivo
Parameters: mouse brain membrane fraction for mouse assays; from tissue; host or cells: mouse brain (membrane fraction in vitro; brain proteomes of treated C57Bl/6J mice in vivo)
Settings: 5 mg/kg oral gavage, brain proteome 4 h after administration, read-out: MAGL % inh. 5 mg/kg (mouse)
recordedEndpoint: inhibition at 5 mg/kg

CN(Cc1cccc(C(F)(F)F)c1N1CCCC1)C1(C)CCN(C(=O)n2ccc(C(=O)O)n2)CC1    0 to 25%
CN(Cc1ccc(C(F)(F)F)c(N2CCCC2)c1)C1(C)CCN(C(=O)n2ccc(C(=O)O)n2)CC1    0 to 25%
Cc1ccc(Oc2cccc(CN3CCN(C(=O)n4ccc(C(=O)O)n4)CC3)c2)cc1    0 to 25%

Form field: inhibition at 5 mg/kg recorded for "O=C(O)c1ccn(C(=O)N2CCC3(CCCN3Cc3cc4ccc(C(F)(F)F)cc4s3)CC2)n1" with MAGL (Mus musculus) (enter value)
0 to 25%

Form field: inhibition at 5 mg/kg recorded for "C[C@H]1CN(Cc2cccc(Oc3ccc(Cl)cc3)c2)CCN1C(=O)n1ccc(C(=O)O)n1" with MAGL (Mus musculus) (enter value)
0 to 25%

Form field: inhibition at 5 mg/kg recorded for "O=C(O)c1nn(C(=O)N2CCC3(CCN(Cc4cc(Cl)ccc4C(F)(F)F)C3)CC2)cc1C(F)(F)F" with MAGL (Mus musculus) (enter value)
0 to 25%

Form field: inhibition at 5 mg/kg recorded for NC(=O)c1ccn(C(=O)N2CC3CN(Cc4ccc(C5(C(=O)O)CCOCC5)cc4C(F)(F)F)CC3C2)n1 (stereo not drawn) with MAGL (Mus musculus) (enter value)
0 to 25%

Form field: inhibition at 5 mg/kg recorded for "CC(C)(O)C1CCN(c2cc(C(F)(F)F)ccc2CN2CCN(C(=O)n3ccc(C(=O)O)n3)CC2)CC1" with MAGL (Mus musculus) (enter value)
0 to 25%

Form field: inhibition at 5 mg/kg recorded for "O=C(O)c1ccn(C(=O)N2CCN(Cc3cccc(C(F)(F)F)c3N3CCCC3)CC2)n1" with MAGL (Mus musculus) (enter value)
0 to 25%

Form field: inhibition at 5 mg/kg recorded for "C[C@@H]1CN(Cc2ccc(C(F)(F)F)cc2N2CCCC2)CCN1C(=O)n1ccc(C(=O)O)n1" with MAGL (Mus musculus) (enter value)
0 to 25%

Form field: inhibition at 5 mg/kg recorded for "C[C@@H]1CN(Cc2ccc(-c3ccccc3)cc2Cl)CCN1C(=O)n1ccc(C(=O)O)n1" with MAGL (Mus musculus) (enter value)
25 to 50%

Form field: inhibition at 5 mg/kg recorded for "O=C(O)c1ccn(C(=O)N2CCC3(CCN(Cc4cccc(Oc5ccc(Cl)cc5)c4)C3)CC2)n1" with MAGL (Mus musculus) (enter value)
0 to 25%

Form field: inhibition at 5 mg/kg recorded for "O=C(O)c1ccn(C(=O)N2C[C@H]3C[C@H](OCc4cccc(Oc5ccc(Cl)cc5)c4)C[C@H]3C2)n1" with MAGL (Mus musculus) (enter value)
0 to 25%

Form field: inhibition at 5 mg/kg recorded for "O=C(O)c1ccn(C(=O)N2CCN(Cc3cccc(Oc4cc(C(F)(F)F)ccn4)c3)CC2)n1" with MAGL (Mus musculus) (enter value)
0 to 25%

Form field: inhibition at 5 mg/kg recorded for "CN(Cc1ccc(C(F)(F)F)cc1N1C2CCC1COC2)C1(C)CCN(C(=O)n2ccc(C(=O)O)n2)CC1" with MAGL (Mus musculus) (enter value)
0 to 25%
